assay: Apparent volume of distribution in Sprague-Dawley rat at 2 mg/kg, iv measured for 5 to 1440 mins by LC-MS/MS analysis; type: ADME, organism-based; conditions: in vivo, time 5-1440 min, read-out: Vz

[
  {
    "Smiles code": "COc1ccc(-c2c(C#N)c(=O)n(Cc3ccccc3)c3c(N[C@H](C)c4ccccn4)cccc23)cc1",
    "Vd (L/kg)": 16.3
  }
]
